Each recorded value in this set is attributed to PubChem BioAssay (Tox21).

EXPERIMENTAL DETAILS: qHTS assay to identify small molecule agonists of H2AX - cell viability counter screen (AID 1224847); also: nearly all actives have a fitted effect of over 30% in size
CONDITIONS: CHO-K1 viability, CellTiter-Glo luminescence, 3 h; series mostly up to 154 µM
Results filed as inconclusive are left out. Active and inactive are the calls of the source. Calls follow the shape of the full dose curve.
Classes used: active, inactive

STRUCTURE	CLASS
Sc1nc2ccccc2s1	inactive
Cc1c(C)c2c(c(C)c1O)CC[C@@](C)(CCC[C@H](C)CCC[C@H](C)CCCC(C)C)O2	inactive
CCCCCCCCCCCCOCCOCCOCCOCCOCCOCCOCCOCCOCCO	active
COc1cccc(OC)c1C(=O)O	inactive
COC(=O)c1ccccc1C	inactive
CCOc1ccc2ccccc2c1C(=O)N[C@@H]1C(=O)N2[C@@H]1SC(C)(C)[C@@H]2C(=O)O	inactive
Cc1c(N)cccc1C(F)(F)F	inactive
COc1cc(S(=O)(=O)O)c(C)cc1N=Nc1c(O)ccc2cc(S(=O)(=O)O)ccc12	active
Cc1ccc(C)cc1	inactive
O=c1oc2cc(O)ccc2c2oc3cc(O)ccc3c12	inactive
C1CCC(SSC2CCCCC2)CC1	inactive
CCCCCC/C=C\CCCCCCCC(=O)O	inactive
Cc1cccc2cccnc12	inactive

---

EXPERIMENTAL DETAILS: qHTS RealTime-Glo MT Cell Viability Assay in HEK293 cells - 16 hour (AID 1224872); also: nearly all actives have a fitted effect of over 50% in size
CONDITIONS: RealTime-Glo luminescence; series mostly up to 76.8 µM
Results filed as inconclusive are left out. Calls of active or inactive are those of the source. Calls come from the whole dose curve; as a rule, active = well fitted cell-killing curve with a large enough effect in the repeat runs; inconclusive = weak or mixed curves, or effect the other way; inactive = flat fitted curve, though single readings scatter.
Classes used: 1.0 (active), 0.0 (inactive)

MOLECULE	CLASS
CCOC(=O)NNc1ccc(N(CC)CC(C)O)nn1 (stereo not given)	0.0
COc1ccc2c(c1)c(CC(=O)OC/C=C(\C)CC/C=C(\C)CCC=C(C)C)c(C)n2C(=O)c1ccc(Cl)cc1	0.0
CCCCCCCCCCC[C@@H](C[C@@H]1OC(=O)[C@H]1CCCCCC)OC(=O)[C@H](CC(C)C)NC=O	1.0
CC(=O)Oc1cc2c(s1)CCN(C(C(=O)C1CC1)c1ccccc1F)C2 (stereo not given)	0.0
O=C(O)c1cc(-c2ccc(F)cc2F)ccc1O	0.0
C=CC(=O)Nc1cc2c(Nc3ccc(F)c(Cl)c3)ncnc2cc1OCCCN1CCOCC1	1.0
Cc1ccc(C(=O)O)cc1	0.0
CCc1oc2ccccc2c1C(=O)c1cc(I)c(O)c(I)c1	0.0
O=S(=O)(O)c1ccc(Nc2nc(Nc3ccc(/C=C/c4ccc(Nc5nc(Nc6ccc(S(=O)(=O)O)cc6)nc(N(CCO)CCO)n5)cc4S(=O)(=O)O)c(S(=O)(=O)O)c3)nc(N(CCO)CCO)n2)cc1	0.0
Nc1ccc(Oc2ccc(Cl)cc2)cc1	1.0
CC(=O)c1ccc(C(C)=O)cc1	0.0
O=C(O)Cc1ccc2c(c1)C(=O)c1ccccc1CO2	0.0
O[C@@H]([C@H](O)[C@H](O)CBr)[C@H](O)CBr	0.0
COc1ccc(-c2coc3cc(O)ccc3c2=O)cc1	0.0
CCCCCCCC	0.0
CC1(C)CCC[C@]2(C)[C@H]3CCO[C@]3(C)CC[C@@H]12	0.0
NC(=S)NC(N)=S	0.0
CCCCC(CC)CN1CN(CC(CC)CCCC)CC(C)(N)C1 (stereo not given)	1.0
CCO[Si](OCC)(OCC)OCC	0.0
CC(C)(C)C1CCC(=O)CC1	0.0
Oc1c(I)cc(Cl)c2cccnc12	0.0
CCN(CC)C(=O)c1cc(S(=O)(=O)Cc2ccccc2)c(N2CCC(c3ccccc3)CC2)cc1N(CC)CCN(C)C	1.0
CCc1ccc(Br)cc1	0.0
O=[N+]([O-])c1ccc(F)c(Cl)c1	0.0
CC1=CCC(=C(C)C)CC1	0.0
